Test system: PC9 cells
protocol: cells
settings: Homo sapiens, PC-9, 72 h, read-out: half-maximal inhibitory concentration (IC50)
property_name: IC50 (nM)
Supply the numeric figure in nM, leaving out any unit text.

Name the recorded IC50 for "C=CC(=O)Nc1cc(Nc2nccc(-c3cn(C)c4ccccc34)n2)c(OC)cc1N(C)CCN(C)C" .
900

---

System: HCC827 cells
protocol: cells
settings: Homo sapiens, HCC827, 72 h, read-out: half-maximal inhibitory concentration (IC50)
property_name: IC50
Answer by giving the amount and then stating its unit.

Name the recorded IC50 for "C=CC(=O)Nc1cc(Nc2nccc(-c3cn(C)c4ccccc34)n2)c(OC)cc1N(C)CCN(C)C" .
1800 nM
